- System: C. albicans ATCC 10231
- Experiment Description: Preservation stress test, example formulation 2 (roll-on deodorant formulation)
- Assay type: cell-based
- Condition Set: 1% active substance, 14 d
Observation Type: Microbicidal activity given as logarithmic reduction in germ count (log. Red.)
Give the value, in units of log. Red., as a plain number.

Some solved entries appear below for comparison.
# Compound, Result Units, Measured Value
measured = [
    ("OCC1(CO)CCCC1 [DMCP, 1,1-dimethylolcyclopentane]", "log. Red.", 0),
    ("CCCCCC(CO)(CO)CCC [PPPD, 2-pentyl-2-propylpropane-1,3-diol]", "log. Red.", 0),
]

Query compound follows.
Endpoint output: Microbicidal activity given as logarithmic reduction in germ count of CC(C)C(C)(CO)CO [IMPD, 2-isopropyl-2-methylpropane-1,3-diol] . Value? 0

###

- Tested on: S. aureus NCIMB 9578
- Experiment Description: Microstatic activity, MIC in tryptone soy broth
- Type: cell-based
- Condition Set: Staphylococcus aureus, NCIMB9578, 30° C., 48 hours, lower limit of MIC range, read-out: MIC value (ppm of diol), from
compounds and their reported MIC

Some solved entries appear below for comparison.
# Compound, Observation Type, Measured Value
records = [
    ("CCCCCCCCC(C)(CO)CO", "MIC", "> 25 mg/mL"),
    ("CC(C)C(C)(CO)CO", "MIC", "> 12.5 mg/mL"),
    ("CC(C)CCC(CO)(CO)C(C)C", "MIC", "> 50 mg/mL"),
    ("OCC1(CO)CCCCC1", "MIC", "> 12.5 mg/mL"),
]

Endpoint output: MIC of CCCC(O)CO (stereo not drawn) [1,2-Pentanediol, 1,2-pentanediol, reference compound] . Value? > 25 mg/mL

Endpoint output: MIC of `CCC(C)(CO)CO` . Value? > 25 mg/mL

###

- System: C. albicans NCPF 3179
- Experiment Description: Microstatic activity, MIC in tryptone soy broth
- Type: cell-based
- Condition Set: Candida albicans, NCPF3179, 120 h, 25° C., 5 days, upper limit of MIC range, read-out: MIC value (ppm of diol), to
- Description: For this, in each case a 40 percent strength by weight solution of a diol in propylene glycol was prepared at 60° C. This solution was diluted with a double-strength soy solution (double-strength tryptone soy broth) as nutrient medium in the volume ratio 1:1. […] In each case, the MIC (Minimum Inhibitory Concentration) value was determined. […]
Observation Type: MIC

# Molecule, MIC
measured = [
    ("CCCC(O)CO (centres unmarked) [1,2-Pentanediol, 1,2-pentanediol, reference compound]", "≤ 50 mg/mL"),
    ("CCCCCC(CO)(CO)CCC", "≤ 12.5 mg/mL"),
    ("OCC1(CO)CCCCC1", "≤ 50 mg/mL"),
]

Endpoint output: MIC of `CCCCC(CC)(CO)CO` . Value? ≤ 50 mg/mL

Endpoint output: MIC of CC(O)CC(C)O (centres unmarked) [2,4-Pentanediol, 2,4-pentanediol, reference compound] . Value? ≤ 100 mg/mL

###

- System: P. vulgaris NCIMB 4175
- Experiment Description: Microstatic activity, MIC in tryptone soy broth
- Type: cell-based
- Condition Set: Proteus vulgaris, NCIMB4175, 30° C., 48 hours, upper limit of MIC range, read-out: MIC value (ppm of diol), to
Observation Type: MIC

Some solved entries appear below for comparison.
# Compound, MIC
records = [
    ("OCC1(CO)CCCCCCC1", "≤ 12.5 mg/mL"),
    ("OCC1(CO)CCCCC1", "≤ 25 mg/mL"),
    ("CCC(C)(CO)CO", "≤ 50 mg/mL"),
    ("OCC1(CO)CC2CCC1C2 (stereo not shown)", "≤ 12.5 mg/mL"),
    ("OCC1(CO)CCCC1", "≤ 25 mg/mL"),
    ("CC(C)CCC(CO)(CO)C(C)C", "≤ 100 mg/mL"),
]

So what MIC did `CCCCC(CC)(CO)CO` get with P. vulgaris NCIMB 4175? ≤ 6.25 mg/mL
